- protocol_text: in vivo
- experimental_setup: rat, plasma
endpoint_name: half-life
A bare number is not enough; add the unit after it.

INPUT: Which half-life is listed for Cc1nnc2sc3c(NCc4ccc(C(C)(C)O)cc4)ncnc3c2c1C ?
OUTPUT: 3 h

---

- study_target: human mAChR M4 (Homo sapiens)
- Sequence (P08173 1-479): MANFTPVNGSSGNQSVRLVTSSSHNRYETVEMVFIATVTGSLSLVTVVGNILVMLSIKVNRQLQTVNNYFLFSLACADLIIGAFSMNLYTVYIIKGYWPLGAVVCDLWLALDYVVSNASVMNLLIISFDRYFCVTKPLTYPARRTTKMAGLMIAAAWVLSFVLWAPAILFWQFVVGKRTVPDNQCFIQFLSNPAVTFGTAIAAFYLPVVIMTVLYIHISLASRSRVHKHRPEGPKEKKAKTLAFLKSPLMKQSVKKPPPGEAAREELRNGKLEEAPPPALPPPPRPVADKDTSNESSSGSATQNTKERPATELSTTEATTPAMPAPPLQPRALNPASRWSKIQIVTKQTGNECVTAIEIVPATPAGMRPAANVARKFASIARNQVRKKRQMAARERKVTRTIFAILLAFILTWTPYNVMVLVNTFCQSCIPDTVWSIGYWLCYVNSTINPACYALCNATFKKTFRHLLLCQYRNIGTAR
- protocol_text: mAChR M4 cell-based functional assay (calcium flux), human M4
- experimental_setup: Table 10; % ACh maximum at 30 μM
Counter-ions that a name gives are not always drawn.
endpoint_name: Emax (%)
One number for each entry, in %.

molecule=Cc1nnc2oc3c(NC4CC5(COC5)C4)ncnc3c2c1C endpoint_name=Emax unit_name=% assay_result=25.6
molecule=COc1ccc(CNc2ncnc3c2sc2nnc(C)c(C)c23)cc1F endpoint_name=Emax unit_name=% assay_result=71.6
molecule=Cc1cc(C)c2c(n1)sc1c(NC3CCC3)ncnc12 endpoint_name=Emax unit_name=% assay_result=75.5
molecule=Cc1nnc2sc3c(NCc4ccc(C(=O)NC5CC5)cc4)ncnc3c2c1C endpoint_name=Emax unit_name=% assay_result=86
molecule=Cc1nnc2sc3c(NCc4ccc(C(=O)NC5CCC(C)(C)CC5)cc4)ncnc3c2c1C endpoint_name=Emax unit_name=% assay_result=86

Could I get Emax for every one of these entries?
1. Cc1nc2sc3c(N4CC5CC5C4)ncnc3c2c(C)c1Cl (stereo not drawn) [Compound 257, hydrochloride]
2. Cc1nnc2sc3c(NCc4ccc(OC(F)F)nc4)ncnc3c2c1C
3. Cc1nnc2oc3c(NC4CC(F)(F)C4)ncnc3c2c1C
4. Cc1nnc2sc3c(NCc4ccc(C(C)(C)O)nc4)ncnc3c2c1C
5. Cc1ncc(CN2CC3(CC(Nc4ncnc5c4sc4nnc(C)c(C)c45)C3)C2)cn1
6. Cc1nnc2sc3c(NCc4ccc(F)c(C(=O)NC(C)C(C)(C)CO)c4)ncnc3c2c1C (stereo not drawn)

OUTPUT:
64.4
76.7
57.9
54.1
34.7
94.2

Could I get Emax for every one of these entries?
1. Cc1nnc2sc3c(NCc4ccc(-c5cccs5)cc4)ncnc3c2c1C
2. Cc1c(Cl)nnc2sc3c(NC4CCC4)ncnc3c12
3. Cc1nnc2sc3c(NC45CC(F)(C4)C5)ncnc3c2c1C
4. COc1ccc(CNc2ncnc3c2sc2nnc(C)c(C)c23)cc1OC
5. Cc1nnc2sc3c(NC4CC5(C4)CN(c4ncc(Cl)cc4F)C5)ncnc3c2c1C
6. Cc1nnc2sc3c(NCc4cccc(C5(O)CCC5)c4)ncnc3c2c1C
7. Cc1nnc2sc3c(NCc4ccc(N5CCNCC5)cc4)ncnc3c2c1C
8. Cc1nc2oc3c(NC4CN(c5ncc(C(F)(F)F)cn5)C4)ncnc3c2c(C)c1Cl [Compound 241, hydrochloride]

OUTPUT:
1: 90.8; 2: 65.1; 3: 67.6; 4: 79.7; 5: 22.7; 6: 53.3; 7: 101; 8: 39.7

Could I get Emax for every one of these entries?
1. Cc1cc(C)c2c(n1)sc1c(N3CC(F)(F)C3)ncnc12
2. Cc1nc2oc3c(NCc4cccc(C(C)(C)O)c4)ncnc3c2c(C)c1Cl
3. Cc1cc(C)c2c(n1)sc1c(N3CCCC3)ncnc12
4. Cc1nnc2sc3c(NCc4ccc(C5(O)CCC5)cc4)ncnc3c2c1C
5. Cc1nnc2sc3c(NCc4ccc(C(=O)N5CC(F)(F)C5)cc4)ncnc3c2c1C
6. COCCNC(=O)c1cc(CNc2ncnc3c2sc2nnc(C)c(C)c23)ccc1F
7. COc1ccc(CNc2ncnc3c2sc2nnc(C)c(C)c23)cc1

OUTPUT:
[68.7, 54.4, 67.3, 69.4, 84.9, 86.8, 87.8]

Could I get Emax for every one of these entries?
1. Cc1nnc2sc3c(N4Cc5ccc(C(C)(C)O)cc5C4)ncnc3c2c1C
2. Cc1nnc2oc3c(NCc4ccc(C(C)(C)O)nc4)ncnc3c2c1C
3. Cc1cc(C)c2c(n1)oc1c(NCc3ccc(S(C)(=O)=O)cc3)ncnc12 [Compound 292, hydrochloride]
4. Cc1nnc2oc3c(NC4CCC4)ncnc3c2c1C
5. Cc1c(Cl)nnc2sc3c(NCc4ccc(OC(F)F)nc4)ncnc3c12

OUTPUT:
1: 53.6; 2: 59.5; 3: 42.5; 4: 54.8; 5: 68.5
